- tgt: THR beta-LBD (Homo sapiens)
- Construct: THR alpha-LBD (0.4 nM final concentration) or THR beta-LBD (1.0 nM final concentration) was added; purchased ThermoFisher
- Sequence (P10828 217-461 limits assumed): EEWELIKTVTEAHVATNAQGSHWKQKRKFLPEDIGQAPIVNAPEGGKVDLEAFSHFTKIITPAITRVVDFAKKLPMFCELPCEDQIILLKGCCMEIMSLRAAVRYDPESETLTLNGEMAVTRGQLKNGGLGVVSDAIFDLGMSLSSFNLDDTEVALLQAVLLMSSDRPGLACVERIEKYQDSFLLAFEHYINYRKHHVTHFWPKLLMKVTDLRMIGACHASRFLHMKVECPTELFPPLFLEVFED
- test: LanthaScreen TR-FRET Thyroid Receptor beta Coactivator Assay
- Format: biochemical
- measurementParameters: THR beta over THR alpha; derived from T3-selectivity normalized data
measuredMetric: THRβ-Selectivity

(1) CCn1nc(-c2cc(Cl)c(Oc3cc(C(C)C)c(=O)[nH]n3)c(Cl)c2)c(=O)[nH]c1=O
(2) CCC(CC)c1cc(Oc2c(Cl)cc(-c3nn(C)c(=O)[nH]c3=O)cc2Cl)n[nH]c1=O
Prompt line: // pick min by THRβ-Selectivity: 1 , 2 Field: selected label. Fill in the label of the entry you choose.
Response line: 1
(1: 13.9, 2: 33.9)

(I) O=c1[nH]nc(-c2cc(Cl)c(Oc3cc(C4CC4)c(=O)[nH]n3)c(Cl)c2)c(=O)[nH]1
(II) CC(C)c1cc(Oc2c(Cl)cc(-c3nn(CC(F)F)c(=O)[nH]c3=O)cc2Cl)n[nH]c1=O
Prompt line: Compare the recorded THRβ-Selectivity of I and II ; state which is larger. Field: selected label. Fill in the label of the entry you choose.
Response line: I

###

- tgt: THR alpha-LBD (Homo sapiens)
- Construct: THR alpha-LBD (0.4 nM final concentration) or THR beta-LBD (1.0 nM final concentration) was added
- test: LanthaScreen TR-FRET Thyroid Receptor alpha Coactivator Assay
- measurementParameters: 2 hours incubation at room temperature, run in duplicate multiple times, average data, read-out: EC50 THRα-FRET
measuredMetric: EC50 (nM)

1) CC(C)c1cc(Cc2c(Cl)cc(-c3nn(C)c(=O)[nH]c3=O)cc2Cl)n[nH]c1=O	1210
2) CC(O)c1cc(Oc2c(Cl)cc(-c3n[nH]c(=O)[nH]c3=O)cc2Cl)n[nH]c1=O (centres unmarked)	1160

(P) CC(C)c1cc(Oc2c(Cl)cc(-c3n[nH]c(=O)[nH]c3=O)cc2Cl)n[nH]c1=O
(Q) CC[C@@H](C)c1cc(Oc2c(Cl)cc(-c3n[nH]c(=O)[nH]c3=O)cc2Cl)n[nH]c1=O (single isomer, unassigned) [Compound 33 P1]
(R) CC(C)c1cc(Oc2c(Cl)cc(-c3nn(CC(F)F)c(=O)[nH]c3=O)cc2Cl)nn(C)c1=O
(S) CC(C)c1cc(Oc2c(Cl)cc(-c3n[nH]c(=O)[nH]c3=O)cc2Cl)nn(C)c1=O
Prompt line: Thanks in advance: please rank these 4 entries by EC50, highest to lowest. As an answer, provide the labels arranged in the order called for.
Response line: Q, R, P, S

###

- tgt: THR alpha-LBD (Homo sapiens, UniProt P10827)
- Construct: THR alpha-LBD (0.4 nM final concentration) or THR beta-LBD (1.0 nM final concentration) was added
- Sequence (P10827 163-410 isoform P10827-2 limits assumed, other chains not shown): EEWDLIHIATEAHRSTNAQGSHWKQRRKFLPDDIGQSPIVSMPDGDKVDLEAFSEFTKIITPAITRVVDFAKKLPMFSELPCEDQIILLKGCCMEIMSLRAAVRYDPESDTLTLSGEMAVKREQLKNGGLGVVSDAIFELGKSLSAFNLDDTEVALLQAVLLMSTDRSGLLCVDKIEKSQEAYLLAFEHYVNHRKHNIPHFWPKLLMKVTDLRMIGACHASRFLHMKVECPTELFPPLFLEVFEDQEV
- test: LanthaScreen TR-FRET Thyroid Receptor alpha Coactivator Assay
- measurementParameters: 2 hours incubation at room temperature, run in duplicate multiple times, average data, read-out: EC50 THRα-FRET
pEC50: −log10 of the molar value.
measuredMetric: pEC50

Answered examples (6):
1) CC(C)c1cc(Cc2c(Cl)cc(-c3n[nH]c(=O)[nH]c3=O)cc2Cl)nn(C)c1=O	7.00
2) CC(C)c1cc(C(=O)c2c(Cl)cc(-c3n[nH]c(=O)[nH]c3=O)cc2Cl)nn(C)c1=O	6.36
3) C[C@@H](O)c1cc(Oc2c(Cl)cc(-c3nn(C)c(=O)[nH]c3=O)cc2Cl)n[nH]c1=O (single isomer, unassigned) [Compound 31 P2]	5.51
4) CCC(O)c1cc(Oc2c(Cl)cc(-c3nn(C)c(=O)[nH]c3=O)cc2Cl)n[nH]c1=O (stereo not drawn)	5.88
5) CCc1cc(Oc2c(Cl)cc(-c3nn(C)c(=O)[nH]c3=O)cc2Cl)n[nH]c1=O	5.46
6) CCC(CC)c1cc(Oc2c(Cl)cc(-c3nn(C)c(=O)[nH]c3=O)cc2Cl)n[nH]c1=O	5.76

(1) CCC(C)c1cc(Oc2c(Cl)cc(-c3nn(C)c(=O)[nH]c3=O)cc2Cl)n[nH]c1=O (stereo not drawn)
(2) CC(C)c1cc(Oc2c(Cl)cc(-c3nn(C)c(=O)[nH]c3=O)cc2Cl)nn(C)c1=O
(3) CC[C@@H](C)c1cc(Oc2c(Cl)cc(-c3n[nH]c(=O)[nH]c3=O)cc2Cl)n[nH]c1=O (single isomer, unassigned) [Compound 33 P2]
Prompt line: Thanks in advance: please rank these 3 entries by pEC50, highest to lowest. As an answer, provide the labels arranged in the order called for.
Response line: 2, 3, 1

(I) CCOC(=O)Cn1nc(-c2cc(Cl)c(Oc3cc(C(C)C)c(=O)[nH]n3)c(Cl)c2)c(=O)[nH]c1=O
(II) CC(CO)c1cc(Oc2c(Cl)cc(-c3nn(C)c(=O)[nH]c3=O)cc2Cl)n[nH]c1=O (stereo not drawn)
Prompt line: Compare the recorded pEC50 of I and II ; state which is larger. Field: selected label. Fill in the label of the entry you choose.
Response line: I

(a) CC(=O)c1cc(Oc2c(Cl)cc(-c3n[nH]c(=O)[nH]c3=O)cc2Cl)nn(C)c1=O
(b) CC(C)c1cc(Oc2c(Cl)cc(-c3nn(CC(F)F)c(=O)[nH]c3=O)cc2Cl)n[nH]c1=O
Prompt line: Compare the recorded pEC50 of a and b ; state which is larger. Field: selected label. Fill in the label of the entry you choose.
Response line: a
